Test system: Mycobacterium tuberculosis
Experiment: Cornell M. t heat shock assay; also: in the data most compounds retested in dose-response had high values
Assay type: functional, organism-based
Parameters: dose or concentration left out as unconfirmed
Hit rate of the full screen: of about 69,000 compounds, about 950 (1.4%) showed an effect of 50% or more. This is one part of a sample in which strong results are shown more often than they occur.
I would appreciate it if you labelled entries Criterion met when Percent Effect is 20% or higher, otherwise Criterion not met.

Query block: # bool: Percent Effect of CCCn1[nH]cc/c1=N\C(=O)CN1CCc2c(nc(C3CC3)n2C)C1 >= 20%
Result block: Criterion not met

Query block: # bool: Percent Effect of Cc1cc(C)nc(N2CC=C[C@@H]2C(=O)NCc2ccc3c(c2)OCO3)n1.Cl >= 20%
Result block: Criterion not met

Query block: # bool: Percent Effect of Cc1cccc(CN2CCCC3(CCN(C4CCSCC4)C3)C2=O)c1 (stereo not given) >= 20%
Result block: Criterion met

Query block: # bool: Percent Effect of O=CO.c1cc2nccc(CC3CCCN(C4CCOCC4)CC3)c2cn1 (stereo not given) >= 20%
Result block: Criterion not met

Query block: # bool: Percent Effect of COC(=O)Cn1c(=O)nc2n1C(=O)N(c1ccc(Br)cc1)C2 >= 20%
Result block: Criterion not met

Query block: # bool: Percent Effect of O=C(Nc1c(N2CCCC2)cccc1N1CCCC1)c1cnccn1 >= 20%
Result block: Criterion met

Query block: # bool: Percent Effect of CCS(=O)(=O)N1CCC2(CCCN(Cc3ccc(F)c(F)c3)C2=O)C1 (stereo not given) >= 20%
Result block: Criterion not met

Query block: # bool: Percent Effect of O=C(O)C(F)(F)F.c1cnc(N2CCO[C@@H]3CN(Cc4ccoc4)C[C@@H]3C2)nc1 >= 20%
Result block: Criterion not met

Query block: # bool: Percent Effect of Cn1ccc(C(=O)N2C[C@H]3CCC[C@@]3(COCc3cccnc3)C2)n1.O=C(O)C(F)(F)F >= 20%
Result block: Criterion not met

Query block: # bool: Percent Effect of CCN1CCC(c2nc3ccc(NC4CCC4)cn3n2)CC1.O=C(O)C(F)(F)F >= 20%
Result block: Criterion met

Query block: # bool: Percent Effect of O=C1N(Cc2ccccc2F)CCCC12CCN(C1CCSCC1)C2 (stereo not given) >= 20%
Result block: Criterion met

Query block: # bool: Percent Effect of O=C(O)C(F)(F)F.O=C(c1ccno1)N1CC[C@@H]2O[C@@H](COCCN3CCCC3)CC[C@@H]21 >= 20%
Result block: Criterion not met

Query block: # bool: Percent Effect of O=C(N1CCCC1)N1CCc2onc(COc3cccnc3)c2C1.O=C(O)C(F)(F)F >= 20%
Result block: Criterion not met

Query block: # bool: Percent Effect of CN(C)CCN(C)C(=O)Cn1cccc2cc(-c3ccc(F)cc3)nc1-2 >= 20%
Result block: Criterion met

Query block: # bool: Percent Effect of Cc1cccnc1C(Cc1ccsc1)NCc1cnc(N(C)C)nc1 (stereo not given) >= 20%
Result block: Criterion met

Query block: # bool: Percent Effect of CCN1C(=O)C2(CCN(CCN(C)C)CC2)c2ccccc21.O=C(O)C(F)(F)F.O=C(O)C(F)(F)F >= 20%
Result block: Criterion not met

Query block: # bool: Percent Effect of Cl.Cn1cc(C(=O)NCc2cncc3c2CCN(S(C)(=O)=O)C3)cn1 >= 20%
Result block: Criterion met

Query block: # bool: Percent Effect of Cc1noc(C)c1CN1CCC2(CC1)NC(=O)CC2c1ccccc1.O=C(O)C(F)(F)F (stereo not given) >= 20%
Result block: Criterion not met

Query block: # bool: Percent Effect of O=C(NC1CCCCC1)N1CCc2onc(COc3cccnc3)c2C1.O=C(O)C(F)(F)F >= 20%
Result block: Criterion not met

Query block: # bool: Percent Effect of Cc1csc(CN2C[C@@H]3COC[C@]3(COCC(=O)N(C)C)C2)n1.O=C(O)C(F)(F)F >= 20%
Result block: Criterion not met

These entries and their values trace back to ChEMBL document CHEMBL3988442.
